# Tested on: MRC5 cells
# ASSAY NAME: Metabolic activity assay (MTS assay), MRC5
# Type: cell-based, human
# REPORTED CONDITIONS: 72 h
PARAMETER MEASURED: pEC50
// pEC50 is dimensionless: -log10 of concentration (M)

Give recorded pEC50 with MRC5 cells for the following compound: "Cc1c(CCOc2cc(Cl)ccc2-c2ccc3ncc(CCN)n3c2)c(C(=O)N(C)C)nn1C"
7.89

Give recorded pEC50 with MRC5 cells for the following compound: "CNC(=O)c1nn(C)c(C)c1CCOc1cc(Cl)ccc1-c1ccc2ncc(CCN)n2c1"
7.43

----------
# Tested on: BL-41 cells
# ASSAY NAME: CellTiter-Blue assay, BL-41
# Assay type: cell-based, human
# REPORTED CONDITIONS: 72 h
PARAMETER MEASURED: EC50
Answer by giving the amount and then stating its unit.

Suppose we examine the compound "CNC(=O)c1nn(C)c(C)c1CCOc1cc(Cl)ccc1-c1ccc2ncc(CCN)n2c1" ; what EC50 value has been reported?
24 nM

Suppose we examine the compound "Cc1c(CCOc2cc(Cl)ccc2-c2ccc3ncc(CCN)n3c2)c(C(=O)N(C)C)nn1C" ; what EC50 value has been reported?
14 nM

----------
# ASSAY NAME: Human liver microsomes half life
# Assay type: in vitro ADME
# REPORTED CONDITIONS: pH 7.4, read-out: Human liver microsomes t ½
# Procedure: Example Compound 1 was tested for metabolic stability in an assay using human liver microsomes. Comparative Examples 2, 3, 4, 5 and 6 were also tested in the same assay. […] Frozen human liver microsomes obtained from Corning, USA (cat #452117) were thawed and diluted with 100 mM of pH 7.4 phosphate buffer to give a 1 mg/ml solution. […] 110 μL supernatant was diluted 110 μL water and quantitated using LC-MS/MS. […]
t means recorded half-life at 0.625 µM is 40 min or above; f means it is below 40 min.

Evaluate "Cc1nn(C)c(C)c1CCOc1c(F)cccc1-c1ccc2c(c1)c(CN(C)C)nn2C" : half-life at 0.625 µM at minimum 40 min?
f

Evaluate "CNCCc1cnc2ccc(-c3ccc(F)cc3OCCc3c(C)nn(C)c3C)cn12" : half-life at 0.625 µM at minimum 40 min?
f

Evaluate "Cc1nn(C)c(C)c1CCOc1cc(F)ccc1-c1ccc2c(c1)c(CN(C)C)nn2C" : half-life at 0.625 µM at minimum 40 min?
f

Evaluate "Cc1c(CCOc2cc(Cl)ccc2-c2ccc3ncc(CCN)n3c2)c(C(=O)N(C)C)nn1C" : half-life at 0.625 µM at minimum 40 min?
t

Evaluate "Cc1c(CCOc2cc(F)ccc2-c2ccc3ncc(CN(C)C)n3c2)c(C(=O)N(C)C)nn1C" : half-life at 0.625 µM at minimum 40 min?
f

Evaluate "CNC(=O)c1nn(C)c(C)c1CCOc1cc(F)ccc1-c1ccc2ncc(CCN)n2c1" : half-life at 0.625 µM at minimum 40 min?
t

----------
# ASSAY NAME: Mouse half life in vivo
# REPORTED CONDITIONS: plasma; mouse oral half-life; male CD-1 mice, 10 mg/kg po; read-out: Rat or mouse t ½ (mouse) (converted)
PARAMETER MEASURED: half-life (min)
Report the figure in min without appending any unit label.

Suppose we examine the compound "Cc1nn(C)c(C)c1CCOc1cc(F)ccc1-c1ccc2c(c1)c(CN(C)C)nn2C" ; what half-life value has been reported?
42

----------
# Test system: MRC5 cells
# ASSAY NAME: Metabolic activity assay (MTS assay), MRC5
# Format: cell-based, human
# REPORTED CONDITIONS: Homo sapiens, MRC5, 72 h
PARAMETER MEASURED: log10 of EC50 (log10 of the value in nM)
Parameter value (number): base-10 log of EC50 in nM.

Give recorded log10 of EC50 with MRC5 cells for the following compound: "Cc1c(CCOc2cc(F)ccc2-c2ccc3ncc(CCN)n3c2)c(C(=O)N(C)C)nn1C"
2.65

Give recorded log10 of EC50 with MRC5 cells for the following compound: "Cc1nn(C)c(C)c1CCOc1cc(F)ccc1-c1ccc2c(c1)c(CN(C)C)nn2C"
4.43

Give recorded log10 of EC50 with MRC5 cells for the following compound: "Cc1c(CCOc2cc(F)ccc2-c2ccc3ncc(CN(C)C)n3c2)c(C(=O)N(C)C)nn1C"
1.80

Give recorded log10 of EC50 with MRC5 cells for the following compound: "CNCCc1cnc2ccc(-c3ccc(F)cc3OCCc3c(C)nn(C)c3C)cn12"
3.73

Give recorded log10 of EC50 with MRC5 cells for the following compound: "Cc1nn(C)c(C)c1CCOc1c(F)cccc1-c1ccc2c(c1)c(CN(C)C)nn2C"
1.58

----------
# ASSAY NAME: Rat half life in vivo
# REPORTED CONDITIONS: plasma; rat oral half-life; male Sprague-Dawley rats, 3 mg/kg oral gavage; read-out: Rat or mouse t ½ (rat) (converted)
I'd be grateful if you could share measured half-life for these entries.
Report the figure in h without appending any unit label.

Suppose we examine the compound "CNCCc1cnc2ccc(-c3ccc(F)cc3OCCc3c(C)nn(C)c3C)cn12" ; what half-life value has been reported?
4.5

Suppose we examine the compound "CNC(=O)c1nn(C)c(C)c1CCOc1cc(F)ccc1-c1ccc2ncc(CCN)n2c1" ; what half-life value has been reported?
8.3

Suppose we examine the compound "Cc1c(CCOc2cc(Cl)ccc2-c2ccc3ncc(CCN)n3c2)c(C(=O)N(C)C)nn1C" ; what half-life value has been reported?
7.1

----------
# System: LY 12318 cells
# ASSAY NAME: CellTiter-Blue assay, LY 12318
# Format: cell-based, human
# REPORTED CONDITIONS: Homo sapiens, 72 h, read-out: LY12318 EC50
# Experimental: Example NMT inhibitors of the present invention were tested for activity in in vitro CellTiter-Blue® assays using the human cell line MDA MB 231, LY 12318, or BL-41. Comparative Examples 1 and 2 were also tested in the same assays. Compounds having activity in inhibiting metabolic activity in the assay are expected to be useful as agents for preventing and/or treating cancer, by virtue of being inhibitors of human NMT1 and/or NMT2. […]
pEC50: −log10 of the molar value.
PARAMETER MEASURED: pEC50

Suppose we examine the molecule "CNC(=O)c1nn(C)c(C)c1CCOc1cc(F)ccc1-c1ccc2ncc(CCN)n2c1" ; what pEC50 value has been reported?
< 6.43

Suppose we examine the molecule "CNC(=O)c1nn(C)c(C)c1CCOc1cc(Cl)ccc1-c1ccc2ncc(CCN)n2c1" ; what pEC50 value has been reported?
> 7.15

Suppose we examine the molecule "Cc1c(CCOc2cc(F)ccc2-c2ccc3ncc(CCN)n3c2)c(C(=O)N(C)C)nn1C" ; what pEC50 value has been reported?
6.61

----------
I'd be grateful if you could share measured EC50 for these entries.
# Test system: LY 12318 cells
# ASSAY NAME: CellTiter-Blue assay, LY 12318
# Format: cell-based, human
# REPORTED CONDITIONS: 72 h, read-out: LY12318 EC50
Report the figure in nM without appending any unit label.

Suppose we examine the molecule Cc1c(CCOc2cc(Cl)ccc2-c2ccc3ncc(CCN)n3c2)c(C(=O)N(C)C)nn1C [Example Compound 1] ; what EC50 value has been reported?
27

Suppose we examine the molecule CNC(=O)c1nn(C)c(C)c1CCOc1cc(Cl)ccc1-c1ccc2ncc(CCN)n2c1 [Example Compound 2] ; what EC50 value has been reported?
69

----------
# ASSAY NAME: Rat hepatocyte half life
# Format: in vitro ADME, Sprague-Dawley rats
# REPORTED CONDITIONS: pooled cryopreserved rat hepatocytes, pH 7.4; pooled male Sprague-Dawley rat hepatocytes; read-out: Rat Hepatocyte t ½
PARAMETER MEASURED: half-life at 1 µM (h)
Report the figure in h without appending any unit label.

Suppose we examine the compound "CNCCc1cnc2ccc(-c3ccc(F)cc3OCCc3c(C)nn(C)c3C)cn12" ; what half-life at 1 µM value has been reported?
0.767

Suppose we examine the compound "Cc1c(CCOc2cc(F)ccc2-c2ccc3ncc(CN(C)C)n3c2)c(C(=O)N(C)C)nn1C" ; what half-life at 1 µM value has been reported?
0.533

Suppose we examine the compound "Cc1c(CCOc2cc(Cl)ccc2-c2ccc3ncc(CCN)n3c2)c(C(=O)N(C)C)nn1C" ; what half-life at 1 µM value has been reported?
1.33

Suppose we examine the compound "CNC(=O)c1nn(C)c(C)c1CCOc1cc(F)ccc1-c1ccc2ncc(CCN)n2c1" ; what half-life at 1 µM value has been reported?
1.35

----------
# TARGET: human NMT1 (HsNMT1) (Homo sapiens, UniProt P30419)
# Sequence (P30419 1-496): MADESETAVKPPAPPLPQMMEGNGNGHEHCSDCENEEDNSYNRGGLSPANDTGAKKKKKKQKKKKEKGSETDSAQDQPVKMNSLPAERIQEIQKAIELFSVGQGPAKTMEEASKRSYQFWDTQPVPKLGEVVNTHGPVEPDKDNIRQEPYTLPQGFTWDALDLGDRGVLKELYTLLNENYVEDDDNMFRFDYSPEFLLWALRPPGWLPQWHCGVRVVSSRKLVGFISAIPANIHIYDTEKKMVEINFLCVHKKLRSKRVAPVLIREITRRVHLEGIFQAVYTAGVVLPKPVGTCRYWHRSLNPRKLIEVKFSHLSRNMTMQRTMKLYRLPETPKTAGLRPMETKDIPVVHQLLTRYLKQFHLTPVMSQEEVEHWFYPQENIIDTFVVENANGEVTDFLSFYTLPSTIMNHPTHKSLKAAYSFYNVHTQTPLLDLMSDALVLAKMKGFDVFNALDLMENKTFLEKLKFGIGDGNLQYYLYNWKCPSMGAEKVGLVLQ
PARAMETER MEASURED: pIC50
// pIC50 is dimensionless: -log10 of concentration (M)

Suppose we examine the compound CNCCc1cnc2ccc(-c3ccc(F)cc3OCCc3c(C)nn(C)c3C)cn12 [Comparative Example 3] ; what pIC50 value has been reported?
7.98

Suppose we examine the compound Cc1c(CCOc2cc(F)ccc2-c2ccc3ncc(CCN)n3c2)c(C(=O)N(C)C)nn1C [Comparative Example 1] ; what pIC50 value has been reported?
8.70

Suppose we examine the compound Cc1nn(C)c(C)c1CCOc1cc(F)ccc1-c1ccc2c(c1)c(CN(C)C)nn2C [Comparative Example 5] ; what pIC50 value has been reported?
7.89

Suppose we examine the compound CNC(=O)c1nn(C)c(C)c1CCOc1c(-c2ccc3ncc(CCN)n3c2)ccc(Cl)c1F [Example Compound 4] ; what pIC50 value has been reported?
8.20
